System: SW-620 colon
Experiment: NCI-60 one-dose screen, 48 h
Details: 10 µM unless noted
The panel holds about 83,000 compounds, 20% with a hit somewhere; the sample as a whole holds those more often. Calls of active or inactive are those of the source. How the source made its calls: active means growth percent below 10; inactive means the rest.
Please state which outcome applies, choosing from active, inactive

molecule	assigned-category
O=c1c(/C=C/c2ccco2)nnc(SCCN2CCOCC2)n1/N=C/c1ccc([N+](=O)[O-])cc1	inactive

Task item: Returns: the outcome recorded for Cn1c2c(Cl)c(Cl)ccc2c2ccn3c(=O)c4ccccc4nc3c21 in this assay.
Reply: inactive

Task item: Try this molecule next: CCOC(=O)C(Cc1cc(I)c(O)c(I)c1)NC(=O)c1ccccc1 (stereo not given)
Reply: inactive

Task item: Try this molecule next: COc1cc(NCCCCN=C(N)NC(N)=NC(C)C)c2ncccc2c1
Reply: inactive

Task item: Item: Cc1sc2nc3[nH]/c(=C\c4ccc(Cl)cc4)c(=O)n3c(=O)c2c1C
Reply: inactive

Task item: Repeat with CCOC(=O)c1c2c(n3ccc(NC(=O)CCN4CCOCC4)cc13)C(=O)c1ncccc1C2=O
Reply: inactive

Task item: Next molecule up: CC1=C(NCCN2CCCC2)C(=O)c2c(OCc3cccc(Cl)c3)cccc2C1=O
Reply: inactive

Task item: // repeat for CN(C)CCCC(=O)Nc1ccc(Cn2nnc3c2C(=O)c2nnn(Cc4ccc(NC(=O)CCCN(C)C)cc4)c2C3=O)cc1 and report
Reply: inactive

Task item: Now this one: COc1ccc(-c2cc(=O)[nH]c3c(OC)c4ccccc4c(OC)c23)cc1
Reply: inactive

Task item: Try this molecule next: CN1CCN(c2ccc3nc(-c4ccc5nc(-c6ccc(OCCC(C)(C)C)cc6)[nH]c5c4)[nH]c3c2)CC1
Reply: active
